The measurements presented in this section are drawn from the supplement of paper PMC13380429.

Exercise: state measured cell viability for each of the compounds provided.
Tested on: HepG2
Protocol description: cell viability relative to DMSO; higher = less toxic
Condition info: 72 h; 10 nM
Answers are plain numbers, in %.

Example entries begin here.
| Compound | Target entity | Units label | cell viability |
| --- | --- | --- | --- |
| Cc1nc2ccccc2n1Cc1ccc(Cl)cc1 | HepG2 | % | 95.4 |
| O=[N+]([O-])c1cnc(Sc2nnc(O)n2-c2ccc3c(c2)OCCO3)s1 | HepG2 | % | 102 |
| CC(C(=O)O)c1ccc2c(c1)CC(=O)c1ccccc1S2 (centres undefined) | HepG2 | % | 103 |
| O=c1c2ccccc2nc2n1CCc1c-2[nH]c2ccccc12 | HepG2 | % | 105 |
| Cc1ccc(C(=O)N(CCCN)[C@@H](c2oc3cc(Cl)ccc3c(=O)c2Cc2ccccc2)C(C)C)cc1 | HepG2 | % | 45.1 |
| COc1ccc(Cl)cc1[C@]1(F)C(=O)Nc2cc(C(F)(F)F)ccc21 | HepG2 | % | 96.3 |
| O=C(c1cncc(Br)c1)N1CCC(N2CCCC2)CC1 | HepG2 | % | 102 |
| CCCCN1CCC(CNC(=O)c2c3n(c4ccccc24)CCCO3)CC1 | HepG2 | % | 106 |

As a next step, examine the compound that follows.
Consider the compound O=C1c2c(O)ccc(O)c2C(=O)c2c(NCCNCCO)ccc(NCCNCCO)c21 and give its measured cell viability. 82.4

---

Exercise: state measured cell viability for each of the compounds provided.
Test system: Caco-2
Protocol description: cell viability relative to DMSO; higher = less toxic
Condition info: 72 h; 10 nM
Give bare numbers, in %.

| Compound | cell viability / % |
| --- | --- |
| CN1C(C(=O)Nc2ccccn2)=C(O)c2sccc2S1(=O)=O [tenoxicam] | 102 |
| CCN1CCN(c2ccc(C(C)(C)NC(=O)c3cc4[nH]c5ccccc5c(=O)c4cc3F)cn2)CC1 | 105 |
| C1CCC(NC2CCCCC2)CC1 [dicyclohexylamine] | 104 |
| COc1cc2c(c(OC)c1OC)-c1c(cc3c(c1OC)OCO3)CC(C)C(C)C2 (stereo unspecified) [schisandrin-B] | 99.5 |
| CC(C)(N)Cc1ccccc1 [phentermine] | 108 |

Hey, quick one: what's cell viability for each of these?
1. COc1ccccc1OCC(O)CNC(C)C (stereo unspecified) [moprolol]
2. Cc1ccc(-c2csc(NC(=O)c3ccccc3)n2)c(C)c1 [INH1]
3. O=C(NNc1ccccc1)c1ccncc1 [plurisin-1]
4. CN1CCCC(CN2c3ccccc3Sc3ccccc32)C1 (stereo unspecified) [mepazine]
5. COc1cc(OC)c(OC)cc1C=O [asaraldehyde]
6. COc1ccc(C(=O)NCc2ccc(OCCN(C)C)cc2)cc1OC [itopride]

1. 95.4
2. 104
3. 106
4. 98.3
5. 102
6. 96.5

---

System: Calu-3
Protocol description: cell viability relative to DMSO; higher = less toxic
Condition info: 72 h; 10 nM
Exercise: state measured cell viability for each of the compounds provided.
Mention the unit after the number when you answer.

Example entries begin here.
| Compound | Target entity | Metric | Measured value |
| --- | --- | --- | --- |
| OC[C@@H](O)[C@@H](O)[C@H](O)[C@@H](O)CO | Calu-3 | cell viability | 98% |
| CCc1c(-c2ccccc2)c(-c2ccccc2)nn1-c1ccccc1-c1cccc(OCC(=O)O)c1 | Calu-3 | cell viability | 94.7% |

Hey, quick one: what's cell viability for each of these?
1. COc1ccnc(C[S+]([O-])c2nc3cc(OC(F)F)ccc3[nH]2)c1OC (stereo not drawn)
2. CN(CC[C@@H](Oc1ccc(-c2ccccc2)cc1)c1ccc(F)cc1)CC(=O)O
3. COc1cc2c(cc1OC)CN(C(=O)[C@@H](NCc1ccncc1)C(C)(C)C)CC2
4. CC1(C)CC[C@]2(C(=O)O)CC[C@]3(C)C(=CC[C@@H]4[C@@]5(C)CC[C@H](O)C(C)(C)[C@@H]5CC[C@]43C)[C@@H]2C1
5. Oc1c(Cl)cc(Cl)cc1Sc1cc(Cl)cc(Cl)c1O
6. O=C(Cc1ccc(-c2ccccc2)cc1)Nc1ccccn1 [difenpiramide]

1: 99.1%; 2: 85.9%; 3: 88.9%; 4: 110%; 5: 95.7%; 6: 99.3%
